Data origin, for the record: PubChem BioAssay

# Measurement Description: inhibition of Brca1/Bard1 split-luciferase complementation, confirmation, counter-screen for Mdm2/MdmX interaction inhibitor project, luminescence, single concentration (AID 504668)
# Applied Conditions: Brca1/Bard1 bimolecular luciferase complementation counterscreen, at 8 µM, stronger effect = higher value
Readout Label: inhibition (%)
// note: answer is a bare numeric in %

These solved cases illustrate the format of a correct answer.
Compound: C/C(=N\NC(=O)c1cccc2ccccc12)c1ccccn1
Readout Label: inhibition
Readout Value: 29.9

Compound: CCCC(=O)NC(c1ccc(N(C)C)cc1)c1ccc2cccnc2c1O (stereo not drawn)
Readout Label: inhibition
Readout Value: 29.9

// below: inhibition requested for another compound
Item "Cc1ccc2sc(N(CCCN(C)C)C(=O)CCS(=O)(=O)c3ccccc3)nc2c1C" has what recorded inhibition? 29.9
